- ASSAY PROCEDURE: NCI Yeast Anticancer Drug Screen. Data for the mec2-1 strain (AID 157)
- ASSAY CONDITIONS: S. cerevisiae mec2-1 strain, at 50.0 µM, active compounds read high
About 79,000 compounds went through this panel and 15% of them were active in at least one assay; those are over-represented in the sample as a whole.
Exercise: for every item that follows, state its recorded growth inhibition.
Numbers only, in %.

COc1cc(OC)c(/C=C(\C)[N+](=O)[O-])cc1Br : 84.9
S=c1nccc[nH]1 : 24.2
O=C([O-])CC(=O)[O-].O=C([O-])CC(=O)[O-].[K+].[Pd+2] : 19.1
ClCCCCl : -15.8
C(#Cc1ccccc1)c1ccccc1.[C-]#[O+].[C-]#[O+].[C-]#[O+].[C-]#[O+].[C-]#[O+].[C-]#[O+].[Co].[Co] : 28.1

Now, please, on to the next molecule.
// NC(=O)C(CBr)NCc1ccccc1 (stereo unspecified) : growth inhibition value = -13.6

----------
- ASSAY PROCEDURE: NCI Yeast Anticancer Drug Screen. Data for the rad50 strain (AID 155);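 note: 0% = growth of vehicle-only cultures of the same strain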
- ASSAY CONDITIONS: S. cerevisiae rad50 strain growth inhibition; at 5.0 µM (retest, dose inferred, filed as 0.5); active compounds read high
About 79,000 compounds went through this panel and 15% of them were active in at least one assay; those are over-represented in the sample as a whole.
RECORDED ENDPOINT: growth inhibition (%)
Answers are plain numbers, in %.

Consider the following illustrative entries.
Oc1c(Cl)cc(Cl)c2ccccc12.[Cu+2] : -5
O=C(N/N=C/c1cc(Br)cc(Br)c1[O-])c1ccccc1O.O=C(N/N=C/c1cc(Br)cc(Br)c1[O-])c1ccccc1O.[Ni+2] : 97
C[C@]12C/C(=C/O)C(=O)C(O)=C1CC[C@@H]1C2CC[C@@]2(C)C1CC[C@@H]2O (some centres undefined) : 6

Now, please, on to the next molecule.
// C[C@@H](O)[C@H]1/C=C/C=C\C(=O)O[C@@H]2C[C@H]3O[C@@H]4[C@@H]5OC5(C)CCC4(COC(=O)[C@H]4O[C@]4(C)[C@@H](O)CO1)[C@]2(C)[C@]31CO1 (some centres undefined) : growth inhibition value = 26

----------
- ASSAY PROCEDURE: NCI Yeast Anticancer Drug Screen. Data for the bub3 strain (AID 167)
- ASSAY CONDITIONS: S. cerevisiae bub3 mutant strain, at 5.0 µM (retest, dose inferred, filed as 0.5)
About 79,000 compounds went through this panel and 15% of them were active in at least one assay; those are over-represented in the sample as a whole. The source made the active and inactive calls. No stated cut-off is given here; in the data, active means growth inhibition above about 70%; inactive means the rest.
A correct response names exactly one class from 1 for active, -1 for inactive

CCOP(=O)(OCC)C(O)c1ccccc1Cl (stereo unspecified) : -1

Query string: How was [C-]#[O+].[C-]#[O+].[CH3][Sn]([CH3])[c]1ccccc1.[Fe+5].[c-]1[c-][c-][cH-][c-]1 classified in this test?
Result string: -1

Query string: How was C[n+]1c(/C=C/c2ccc(O)c3ccccc23)[se]c2ccccc21 classified in this test?
Result string: -1

Query string: How was O=C(c1ccccc1)c1c(CC(O)c2cccnc2)n(C(=O)c2ccccc2)c2ccccc12 (stereo unspecified) classified in this test?
Result string: -1

Query string: How was CC(C)[CH2][Sn](=[O])[c]1ccccc1 classified in this test?
Result string: -1

Query string: How was CN(C)CCBr classified in this test?
Result string: -1

Query string: How was CC1(CO)C(O)CCC2(C)C1CCC1CC3CC12CCC3(O)CO (stereo unspecified) classified in this test?
Result string: -1

----------
Exercise: for every item that follows, state its recorded growth inhibition.
- ASSAY PROCEDURE: NCI Yeast Anticancer Drug Screen. Data for the mec2-1 strain (AID 157)
- ASSAY CONDITIONS: S. cerevisiae mec2-1 strain, at 50.0 µM, active compounds read high
The panel holds about 79,000 compounds, 15% with a hit somewhere; the sample as a whole holds those more often. Activity calls are given as the source filed them. Rule as the data show it: active = growth inhibition above about 70%; inactive = the rest.

CN1CCN(c2ccc3nc(-c4ccc5nc(CCCc6ccc(N(CCCl)CCCl)cc6)[nH]c5c4)[nH]c3c2)CC1 : 90.8% (active)

// for each compound in input: emit growth inhibition
1. CCOP(=O)(OCC)/C(C#N)=C/c1cn(C)cn1
2. O=[As](O)(c1cccc(Cl)c1)C1CCCCC1O (stereo not given)
3. COC(=O)C1C(O)CC2(O)CC(O)CC(O)C(O)CCC(O)CC(O)CC(=O)OC(C)C(C)C(O)C(C)/C=C/C=C/C=C/C=C/C=C/C=C/C=C/C(OC3OC(C)C(O)C(N)C3O)CC1O2 (stereo not given)
4. CCC1(O)C(=O)OCc2c1cc1n(c2=O)Cc2cc3cc(C)ccc3nc2-1 (stereo not given)

Result string:
1.95% (inactive)
-0.35% (inactive)
6.95% (inactive)
83.9% (active)

----------
Exercise: for every item that follows, state its recorded growth inhibition.
- ASSAY PROCEDURE: NCI Yeast Anticancer Drug Screen. Data for the mlh1 rad18 strain (AID 175)
- ASSAY CONDITIONS: S. cerevisiae mlh1 rad18 strain growth inhibition; at 50.0 µM; active compounds read high
The panel holds about 79,000 compounds, 15% with a hit somewhere; the sample as a whole holds those more often.
Answers are plain numbers, in %.

Consider the following illustrative entries.
CCC/C=C/C=C/C(=O)OC1/C(=C/C(=O)OC)CC2CC(C(C)O)OC(=O)CC(O)CC3CC(OC(C)=O)C(C)(C)C(O)(CC4C/C(=C/C(=O)OC)CC(/C=C/C(C)(C)C1(O)O2)O4)O3 (stereo unspecified) : 23.1
OC(c1ccccc1)C(NC1CCCCC1)c1ccccc1 (stereo unspecified) : -56
N#CC(c1ccccc1)c1ccccc1 : 31.3
[O-][n+]1c2ccccc2nn1-c1ccc(N(CCCl)CCCl)cc1 : -22.1
CC1(C)C=C(NC(=O)N2CC2)C(C)(C)N1O : 1.45
CCOC(=O)C(Cl)Cl : 33.4
CCC[CH2][Sn]([CH2]CCC)[S]CC(N)C(=O)O (stereo unspecified) : 97.9
O=C1CN2CCCCC2CN1 (stereo unspecified) : 5.35
COc1ccc2nc3ccccc3nc2c1 (tested in a mixture with another compound) : 30.8
CCC1CN2CCc3cc(OC)c(OC)cc3C2CC1CC1c2cc(OC)c(OC)cc2CCN1C(=O)C(N)Cc1ccccc1 (stereo unspecified) : 8.5

Now, please, on to the next compound.
// Clc1cc[c]([Pb]([Cl])([Cl])[c]2ccc(Cl)cc2)cc1 : growth inhibition value = 13.7

----------
Exercise: for every item that follows, state its recorded growth inhibition.
- ASSAY PROCEDURE: NCI Yeast Anticancer Drug Screen. Data for the mlh1 rad18 strain (AID 175)
- ASSAY CONDITIONS: S. cerevisiae mlh1 rad18 strain growth inhibition; at 50.0 µM; active compounds read high
This is part of a sample that, as a whole, favours compounds with a hit. Of some 79,000 tested, about 15% had one in any assay.
Numbers only, in %.

Consider the following illustrative entries.
C[C@]12C=CC(=O)C=C1CC[C@@H]1[C@@H]2C(=O)C[C@]2(C)C(=O)CC[C@@H]12 : 4.95
COCC(C#N)NC1CC(OC2CC(O)(C(=O)CO)Cc3c(O)c4c(c(O)c32)C(=O)c2c(OC)cccc2C4=O)OC(C)C1O (stereo not given) : 89.8
CCN(CC)CCN1CC2CCCCC2C1 (stereo not given) : 3
CCCCCCCCCCCCCCCCCCC[As](=O)(O)CCCCCCCCCCCCCCCCCCC : 30.4
O=C([CH-]C(=O)c1ccccc1)c1ccccc1.O=C([CH-]C(=O)c1ccccc1)c1ccccc1.[CH2-]CCC.[CH2-]CCC.[Sn+4] : 90
CCC1CN1P(=O)(Oc1ccccc1)N1CC1CC (stereo not given) : -20
O=P1(O)NP(=O)(O)NP(=O)(O)NP(=O)(O)N1 : -3.95
Cc1ccc2c(C)c3ccc4ccccc4c3c[n+]2c1 : 72.5

// for each compound in input: emit growth inhibition
1. CCC(CC)(COC(=O)C(O)(c1ccccc1)c1ccccc1)C[N+](C)(C)C
2. C1OCC2[CH2][Hg][S][Hg][CH2]C1O2
3. O=C(C1C(c2ccccc2)N1C1CCCCC1)C1C(c2ccccc2)N1C1CCCCC1 (stereo not given)
4. C=CCc1cc(C=C(C#N)C#N)cc(OC)c1O
5. O=S1(N2CC2)=NP(N2CC2)(N2CC2)=NP(N2CC2)(N2CC2)=N1 (stereo not given)
6. c1cc2n[pH]nc2cn1 (stereo not given)

Result string:
1: -12.7; 2: 91.3; 3: 8.7; 4: 11.7; 5: -67.1; 6: 43.5

// for each compound in input: emit growth inhibition
1. CC(C)C(CC[C@@H](C)C1CC[C@@]2(C)C3=C(CC[C@]12C)[C@@]1(C)CC[C@H](O)C(C)(C)[C@@H]1CC3)S[As](C)C (stereo not given in full)
2. C#CCN1C(=O)CN2C(Cl)(Cl)C2(c2ccccc2)c2cc(Cl)ccc21 (stereo not given)

Result string:
1. 32.8
2. 37.6

Ref: PubChem BioAssay (NCI)
